These data points were gathered from paper PMC7321301.

Molecular target: LOX (Glycine max, UniProt P08170)
Sequence (P08170 whole entry): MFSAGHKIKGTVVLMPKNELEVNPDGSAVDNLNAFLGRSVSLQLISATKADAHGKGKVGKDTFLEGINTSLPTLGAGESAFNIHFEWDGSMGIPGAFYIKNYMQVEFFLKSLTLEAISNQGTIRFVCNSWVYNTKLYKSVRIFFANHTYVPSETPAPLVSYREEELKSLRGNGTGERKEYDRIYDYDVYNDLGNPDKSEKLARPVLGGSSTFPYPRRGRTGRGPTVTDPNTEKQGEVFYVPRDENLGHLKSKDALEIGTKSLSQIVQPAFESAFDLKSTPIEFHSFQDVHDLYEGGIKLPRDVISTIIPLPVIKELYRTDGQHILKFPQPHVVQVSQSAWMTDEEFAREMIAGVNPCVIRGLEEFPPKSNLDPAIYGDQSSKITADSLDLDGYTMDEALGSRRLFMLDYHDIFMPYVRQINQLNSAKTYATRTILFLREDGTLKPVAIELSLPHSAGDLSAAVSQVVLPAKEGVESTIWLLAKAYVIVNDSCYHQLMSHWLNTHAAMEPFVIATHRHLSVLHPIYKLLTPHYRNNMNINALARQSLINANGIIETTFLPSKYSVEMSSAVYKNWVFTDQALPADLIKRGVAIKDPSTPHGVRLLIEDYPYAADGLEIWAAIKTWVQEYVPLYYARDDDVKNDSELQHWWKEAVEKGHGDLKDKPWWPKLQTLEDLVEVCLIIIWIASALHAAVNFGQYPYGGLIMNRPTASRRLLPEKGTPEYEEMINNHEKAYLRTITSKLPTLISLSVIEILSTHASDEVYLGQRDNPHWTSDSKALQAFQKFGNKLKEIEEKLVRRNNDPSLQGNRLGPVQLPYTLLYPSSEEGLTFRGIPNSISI
Type: biochemical
Details: read-out: IC50 LOX
No end group written: not given here.
Please respond with reported IC50 for every item in the list.
Answers are plain numbers, in µM.

Solved cases (4 shown):
# get_value(readout='IC50', item= GQLGEHGGAGMG [GG-12, GQLGEHGGAGMG] )
131

Entry under review: GNPVGGVGHGTTGT [GT-14, GNPVGGVGHGTTGT] . Reported IC50?
153

Requested field: IC50. Item: YGNPVGGVGH [YH-10, YGNPVGGVGH]
127

If you can, please state the reported IC50 value of GEHGGAGMGGGQFQPV [GV-16, GEHGGAGMGGGQFQPV] .
68.5

# context switch: different sequence, same IC50
I'd like to know its IC50. The sequence in question is EQGFLPGPEESGR [ER-13, EQGFLPGPEESGR]
60.1
